# Tested on: MCF7 breast
# Assay info: NCI-60 one-dose screen, 48 h (100 = growth as untreated, 0 = no growth, -100 = all killed)
# Run parameters: 10 µM unless noted
This is part of a sample that, as a whole, favours compounds with a hit. Of some 83,000 tested, about 20% had one in any assay.
// growth lookup, one value per entry
Measured quantity: growth (%)

[[record]]
molecule = "Clc1ccc(-c2cn3cc(Cc4ccc(Cl)c(Cl)c4)sc3n2)cc1"
target_or_system = "MCF7 breast"
test_value = 49.2

[[record]]
molecule = "Cc1ccc(C(=O)Nc2cccc(C(F)(F)F)c2)cc1Nc1nc(-c2cnccn2)nc2c1cnn2C"
target_or_system = "MCF7 breast"
test_value = 73.2

[[record]]
molecule = "COc1ccc2[nH]cc(-c3cc(N)n4nc(-c5c[nH]c6ccc(OC)cc56)cc4n3)c2c1"
target_or_system = "MCF7 breast"
test_value = 2.38

[[record]]
molecule = "CCN1C(=S)N(CC)C2C1NN=C1SC(c3ccccc3)=CC(=O)N12 (stereo unspecified)"
target_or_system = "MCF7 breast"
test_value = 95.4

[[record]]
molecule = "Cc1ccc2ccc3ccc(C)nc3c2n1.Cc1ccc2ccc3ccc(C)nc3c2n1.Oc1c(Cl)cc(Cl)c2ccc(CN3CCCCC3)nc12.[Ru]"
target_or_system = "MCF7 breast"
test_value = -75.1

[[record]]
molecule = "CC(C)(C)OC(=O)N1C(=O)c2c(c3c4ccccc4[nH]c3c3ccc4ccccc4c23)C1=O"
target_or_system = "MCF7 breast"
test_value = 34.5

[[record]]
molecule = "CS(=O)(=O)c1ccc(-c2nc3ccccn3c2/C=N/Nc2nc(-c3ccc(Br)cc3)cs2)cc1"
target_or_system = "MCF7 breast"
test_value = 92.4

[[record]]
molecule = "CCOC(=O)c1sc(N)c(C(=O)OCC)c1C"
target_or_system = "MCF7 breast"
test_value = 57.9

[[record]]
molecule = "COc1ccc(-c2nc3ccc(-c4nnc(SCC(=O)Nc5ccc(C(=O)/C=C/c6ccccc6)cc5)o4)cc3[nH]2)cc1OC"
target_or_system = "MCF7 breast"
test_value = 78.3

[[record]]
molecule = "COc1ccc(Cc2nn(CC(=O)N/N=C/c3ccc(Cl)cc3)c(=O)c3c(C)noc23)cc1"
target_or_system = "MCF7 breast"
test_value = 83.5

[[record]]
molecule = "N[C@@H](Cc1cn(-c2ccnc3ccccc23)nn1)C(=O)O"
target_or_system = "MCF7 breast"
test_value = 101

[[record]]
molecule = "COc1ccc(-c2nc3ccc(-c4nnc(SCC(=O)Nc5ccc(C(=O)/C=C/c6ccc(Cl)cc6)cc5)o4)cc3[nH]2)cc1OC"
target_or_system = "MCF7 breast"
test_value = 75.9

[[record]]
molecule = "C#Cc1nc(C2=C(C)C(OC(C)=O)/C(=N/OC(C)=O)C2)cs1 (stereo unspecified)"
target_or_system = "MCF7 breast"
test_value = 25.9

[[record]]
molecule = "CN(C)CCCNc1c2ccccc2nc2c1oc1ccc(Cl)cc12"
target_or_system = "MCF7 breast"
test_value = -25.7

[[record]]
molecule = "Cc1ccc2c(n1)C(=O)C(Cl)=C(Nc1cccc(C(C)C)c1)C2=O"
target_or_system = "MCF7 breast"
test_value = -56.7

[[record]]
molecule = "N#Cc1c(-c2ccc(Cl)cc2)nc2c(-c3ccccc3)c(Nc3ccccc3)nn2c1N"
target_or_system = "MCF7 breast"
test_value = 47.9

[[record]]
molecule = "COC(=O)C(C)NS(=O)(=O)/N=C1\\NC(=O)NC1=C(Cl)Cl (stereo unspecified)"
target_or_system = "MCF7 breast"
test_value = 98

[[record]]
molecule = "Clc1ccc2c(NCCCN3CCOCC3)c3oc4ccc(Cl)cc4c3nc2c1"
target_or_system = "MCF7 breast"
test_value = 22.2

[[record]]
molecule = "C=CCn1c(SCC(=O)c2ccc(Br)cc2)nnc1-c1c[nH]c2ccccc12"
target_or_system = "MCF7 breast"
test_value = 97.9

[[record]]
molecule = "CCOC(=O)c1c(Nc2ccccc2)nn2c(N)c(C#N)c(-c3ccccc3)nc12"
target_or_system = "MCF7 breast"
test_value = 60.1

[[record]]
molecule = "O=C(CSc1nc2sc3c(c2c(=O)n1-c1ccc(Cl)cc1)CCCC3)NNC(=O)Nc1cccc(C(F)(F)F)c1"
target_or_system = "MCF7 breast"
test_value = 16.7


* * *

# System: KM12 colon
# Assay info: NCI-60 one-dose screen, 48 h (100 = growth as untreated, 0 = no growth, -100 = all killed)
# Run parameters: 10 µM unless noted
The panel holds about 83,000 compounds, 20% with a hit somewhere; the sample as a whole holds those more often.
Field 'label' (enum: true / false). Set to true when growth is strictly under 50%; else false.

[[record]]
molecule = "CN(C)S(=O)(=O)c1oc(-c2ccccc2)nc1C#N"
class_name = "false"

[[record]]
molecule = "CN(C)c1ccc(-c2c(NC(C)(C)C)nc3c(OCCc4ccccc4)cccn23)cc1"
class_name = "true"

[[record]]
molecule = "N/C(=N\\c1nc2c(Br)cccc2s1)C(Br)Br"
class_name = "true"

[[record]]
molecule = "CCCC(=O)NC(c1ccc2c(c1)OC(F)(F)O2)c1cc(C)c2cccnc2c1O (configuration not stated)"
class_name = "true"

[[record]]
molecule = "Cc1nc(-c2cc3ccccc3oc2=O)ccc1C(=O)/C=C/c1ccccn1"
class_name = "true"

[[record]]
molecule = "CN1CCc2c(sc3ncnc(N/N=C/c4ccc(Cl)c(Cl)c4)c23)C1"
class_name = "true"

[[record]]
molecule = "c1ccc(CNc2ncnc3ccc(-c4cnc5[nH]ncc5c4)cc23)cc1"
class_name = "false"

[[record]]
molecule = "Clc1ccc2oc3c(OCCCn4ccnc4)c4ccccc4nc3c2c1"
class_name = "false"

[[record]]
molecule = "CCCC(=O)NC(c1cccc(N(C)C)c1)c1cc(C)c2cccnc2c1O (configuration not stated)"
class_name = "false"

[[record]]
molecule = "CCCCN1C(=O)/C(=c2\\sc3n(c2=O)C2C(NN=3)N(CC)C(=O)N2CC)c2cc(Cl)ccc21 (configuration not stated)"
class_name = "false"

[[record]]
molecule = "COc1cccc(COc2ccc(/C=C3/C(=O)Nc4cc(Cl)ccc43)cc2)c1"
class_name = "false"

[[record]]
molecule = "CCCC(=O)NC(c1ccc(N(CC)CC)cc1)c1cc(C)c2cccnc2c1O (configuration not stated)"
class_name = "true"

[[record]]
molecule = "Cn1c(SCC(=O)c2cccs2)nc2ccccc2c1=O"
class_name = "false"

[[record]]
molecule = "COc1cc(/C=C/C(=O)c2cc(OC)c(OC)c(OC)c2)ccc1OCc1ccccc1"
class_name = "true"

[[record]]
molecule = "COc1cc(OC)c(C2SCC(=O)N2Nc2ncnc3ccccc23)cc1OC (configuration not stated)"
class_name = "false"

[[record]]
molecule = "CCCSc1nc(Nc2ccc(/C(C)=N\\NC(N)=S)cc2)c(C#N)c(-c2ccc(OC)cc2)n1"
class_name = "false"

[[record]]
molecule = "O=C(N/N=C/c1cccs1)c1[nH]c2ccc(Br)cc2c1-c1ccccc1"
class_name = "true"

[[record]]
molecule = "C/C(=C(/c1ccc(Cl)cc1)c1ccc(OCCN)cc1)c1ccc(C)cc1"
class_name = "false"

[[record]]
molecule = "CN(C)CCCOc1c2ccc(Cl)cc2nc2c1oc1ccccc12"
class_name = "true"

[[record]]
molecule = "CC1=C(C)C(=O)C(Nc2ccccc2)=C(Cl)C1=O"
class_name = "false"

[[record]]
molecule = "NS(=O)(=O)c1ccc(Nc2nc(SCC(=O)c3ccc(Cl)cc3)nc3ccccc23)cc1"
class_name = "false"

[[record]]
molecule = "N#Cc1c(-c2ccc(Cl)cc2)nc(SCc2ccc([N+](=O)[O-])cc2)nc1N1CCNCC1"
class_name = "true"

[[record]]
molecule = "Cc1cc(C(=O)Nc2sc3c(c2C(N)=O)CCC(=O)C3)ccc1OCCN1CCCCC1"
class_name = "false"

[[record]]
molecule = "CN(C)CCCNc1c2ccc(Cl)cc2nc2c1oc1ccc(Cl)cc12"
class_name = "true"

[[record]]
molecule = "COC(=O)C(Cc1ccccc1)NS(=O)(=O)/N=C1\\NC(=O)NC1=C(Cl)Cl (configuration not stated)"
class_name = "true"

[[record]]
molecule = "OC1CCN(CCCOc2c3ccc(Cl)cc3nc3c2oc2ccc(Cl)cc23)CC1"
class_name = "true"

[[record]]
molecule = "COc1ccc(COc2ccc(/C=C3/C(=O)Nc4cc(Cl)ccc43)cc2)cc1"
class_name = "false"


* * *

# Test system: SNB-19 CNS
# Assay info: NCI-60 one-dose screen, 48 h (100 = growth as untreated, 0 = no growth, -100 = all killed)
# Run parameters: 10 µM unless noted
This is part of a sample that, as a whole, favours compounds with a hit. Of some 83,000 tested, about 20% had one in any assay.
// growth lookup, one value per entry
Measured quantity: growth (%)

[[record]]
compound = "COc1ccc(-c2cc(C(=O)N=Nc3c(O)[nH]c4ccccc34)c3ccccc3n2)cc1OC"
test_value = 97.9

[[record]]
compound = "[Cl][Ru].c1ccc(-c2cc(-c3ccccn3)nc(-c3ccccn3)c2)cc1.c1ccc(-c2ccnc3c2ccc2c(-c4ccccc4)ccnc23)cc1"
test_value = 12.2

[[record]]
compound = "CNC(=O)c1cc(-c2ccc(NC(=O)Nc3ccc(N4CCOCC4)c(C(F)(F)F)c3)cc2)nc2cccnc12"
test_value = 58.8

[[record]]
compound = "CCOC(=O)c1sc(N)c(C(=O)OCC)c1C"
test_value = 71.7

[[record]]
compound = "O=C(Oc1ccc2ccc(=O)oc2c1)c1ccc(Cl)cc1"
test_value = 93.2

[[record]]
compound = "Cc1[nH]nc2ncc(C#Cc3cncc(C(=O)Nc4ccc(CN5CCN(C)CC5)c(C(F)(F)F)c4)c3)cc12"
test_value = 50.5

[[record]]
compound = "CC(C)(C)Nc1nc2c(OCCc3ccccc3)cccn2c1-c1cccc(F)c1"
test_value = 20.4

[[record]]
compound = "O=c1[nH]c2ccc(Cl)cc2cc1CSc1ccccc1Nc1nccc(-c2ccc(Cl)cc2)n1"
test_value = 95

[[record]]
compound = "O=C(CN1CCOCC1)NNc1ncnc2ccccc12"
test_value = 102

[[record]]
compound = "O=C(N/N=C/c1cccs1)c1[nH]c2ccc(Br)cc2c1-c1ccccc1"
test_value = 32.3

[[record]]
compound = "COC(=O)C1CN(S(=O)(=O)/N=C2\\NC(=O)NC2=C(Cl)Cl)C1"
test_value = 100

[[record]]
compound = "COc1ccc(C(=O)c2cc(C(=O)/C=C/c3c(Cl)cccc3Cl)c3cc(C)ccn23)cc1"
test_value = 98.8

[[record]]
compound = "Cc1c(NC(=O)CSc2nc3sc4c(c3c(=O)n2-c2ccc(Cl)cc2)CCCC4)c(=O)n(-c2ccccc2)n1C"
test_value = 79.7

[[record]]
compound = "N#Cc1c(-c2ccc(Cl)cc2)nc(SCc2ccc([N+](=O)[O-])cc2)nc1N1CCNCC1"
test_value = 51.8

[[record]]
compound = "CCOC(=O)c1c(Nc2ccccc2)nn2c(N)c(C#N)c(-c3ccc(F)cc3)nc12"
test_value = 94

[[record]]
compound = "Nc1c(C(=O)Nc2ccc(C(F)(F)F)cc2)sc2nc(-c3cnccn3)cc(-c3cccs3)c12"
test_value = 52.2

[[record]]
compound = "N#Cc1ccc(/C=N/NC(=O)c2[nH]c3ccc(Br)cc3c2-c2ccccc2)s1"
test_value = 29.4

[[record]]
compound = "COc1cc(OC)c(C2C(Cl)C(=O)N2Nc2ncnc3ccccc23)cc1OC (stereo not drawn)"
test_value = 98.9

